Entry source: the supplement of paper PMC3545927

Please go through the items and note down their furin cleavage Z-score.
Experimental system: furin, P09958;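 further: purified furin at 1:10 enzyme:substrate in 50 mM HEPES pH 7.5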
Sequence (P09958 whole entry): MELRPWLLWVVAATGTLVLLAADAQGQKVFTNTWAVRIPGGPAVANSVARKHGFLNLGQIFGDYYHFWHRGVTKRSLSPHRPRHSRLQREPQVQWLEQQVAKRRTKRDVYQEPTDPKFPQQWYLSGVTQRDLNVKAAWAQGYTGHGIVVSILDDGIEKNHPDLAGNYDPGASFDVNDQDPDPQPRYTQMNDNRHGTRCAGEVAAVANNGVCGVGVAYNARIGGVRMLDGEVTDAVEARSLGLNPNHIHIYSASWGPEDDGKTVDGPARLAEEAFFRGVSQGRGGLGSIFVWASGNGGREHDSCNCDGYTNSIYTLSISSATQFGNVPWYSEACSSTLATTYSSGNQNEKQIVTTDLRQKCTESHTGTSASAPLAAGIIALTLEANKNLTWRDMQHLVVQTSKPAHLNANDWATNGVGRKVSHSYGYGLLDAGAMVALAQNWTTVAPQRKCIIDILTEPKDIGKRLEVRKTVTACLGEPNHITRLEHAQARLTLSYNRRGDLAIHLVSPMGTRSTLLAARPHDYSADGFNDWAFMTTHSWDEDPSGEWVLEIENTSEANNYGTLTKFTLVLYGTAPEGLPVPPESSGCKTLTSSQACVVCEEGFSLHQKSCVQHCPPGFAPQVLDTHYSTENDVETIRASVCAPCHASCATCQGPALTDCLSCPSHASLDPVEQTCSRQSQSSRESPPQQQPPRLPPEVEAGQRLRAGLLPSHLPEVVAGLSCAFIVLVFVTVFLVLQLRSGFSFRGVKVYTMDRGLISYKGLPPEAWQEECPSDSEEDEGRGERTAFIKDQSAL
Method notes: furin cleavage Z-score vs untreated control; higher = more cleavage, active = 3.5 or more, inactive = 1 or less, 8 variable residues between constant flanks
Assay setup: 30 min
Some of the results follow. How many sequences the whole screen found active is unknown.

Q: Give the measured furin cleavage Z-score of CAWIWFCLLLAGNASASA [HC1656] .
Result: -0.583 (inactive)

Q: Give the measured furin cleavage Z-score of CAADVVCCSMAGNASASA [HC2103] .
Result: 0.566 (inactive)

Q: Give the measured furin cleavage Z-score of CASTPCSAHRAGNASASA [HC2573] .
Result: 1.63

Q: Give the measured furin cleavage Z-score of CAEHEVPCHRAGNASASA [HC2455] .
Result: 2.02
